molecular target: BSA (UniProt P02769); test: ELISA on coated BSA control, anti-myc detection; 2ug antibody added
Sequence (P02769 25-607 limits assumed): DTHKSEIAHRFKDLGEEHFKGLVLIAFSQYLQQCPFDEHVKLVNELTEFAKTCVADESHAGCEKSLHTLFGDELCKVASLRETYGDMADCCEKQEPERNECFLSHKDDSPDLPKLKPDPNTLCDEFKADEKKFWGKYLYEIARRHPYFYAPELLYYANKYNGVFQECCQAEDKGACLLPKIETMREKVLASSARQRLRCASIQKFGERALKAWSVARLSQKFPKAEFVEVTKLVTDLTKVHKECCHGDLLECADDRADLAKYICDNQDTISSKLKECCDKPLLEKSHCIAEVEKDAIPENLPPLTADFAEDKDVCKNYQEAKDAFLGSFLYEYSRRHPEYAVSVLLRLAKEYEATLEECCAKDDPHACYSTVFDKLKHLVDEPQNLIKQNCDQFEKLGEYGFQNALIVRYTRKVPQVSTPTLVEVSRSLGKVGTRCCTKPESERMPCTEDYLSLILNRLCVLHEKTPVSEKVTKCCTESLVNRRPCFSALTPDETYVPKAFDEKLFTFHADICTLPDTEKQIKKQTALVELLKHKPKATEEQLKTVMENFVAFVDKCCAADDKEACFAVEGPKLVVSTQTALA
metric-name: OD450 nm
State the result as a value with its unit after it.

Some solved cases for reference:
binder	OD450 nm
anti-CD79B single-domain antibody JYB8 (VHH, not shown: small tags and cut ends) VHH: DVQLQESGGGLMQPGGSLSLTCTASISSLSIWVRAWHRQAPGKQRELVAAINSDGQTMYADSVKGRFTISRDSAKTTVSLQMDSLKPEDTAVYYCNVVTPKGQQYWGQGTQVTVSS	0.0582 OD450
anti-CD79B single-domain antibody JYB10 (VHH, Alpaca VHH from a phage library; ELISA detected with an anti-myc antibody; a myc tag is not described; not shown: His-tag protein at the C-terminal end) VHH: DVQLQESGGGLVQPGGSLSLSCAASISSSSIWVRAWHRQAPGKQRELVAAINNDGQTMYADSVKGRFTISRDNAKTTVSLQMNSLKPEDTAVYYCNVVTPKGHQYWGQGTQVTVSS	0.0482 OD450
anti-CD79B single-domain antibody JYB14 (VHH, Alpaca VHH from a phage library; ELISA detected with an anti-myc antibody; a myc tag is not described; not shown: His-tag protein at the C-terminal end) VHH: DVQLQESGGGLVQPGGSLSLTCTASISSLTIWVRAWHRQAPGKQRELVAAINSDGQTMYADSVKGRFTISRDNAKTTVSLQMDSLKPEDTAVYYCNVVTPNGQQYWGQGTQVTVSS	0.0506 OD450
anti-CD79B single-domain antibody JYB4 (VHH, Alpaca VHH from a phage library; not shown: His-tag protein at the C-terminal end) VHH: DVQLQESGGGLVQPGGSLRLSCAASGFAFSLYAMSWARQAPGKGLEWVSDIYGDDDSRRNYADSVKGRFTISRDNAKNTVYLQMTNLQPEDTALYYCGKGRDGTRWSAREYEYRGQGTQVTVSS	0.0479 OD450

Value of measured OD450 nm for the entry anti-CD79B single-domain antibody JYB11 (VHH, Alpaca VHH from a phage library; ELISA detected with an anti-myc antibody; a myc tag is not described; not shown: His-tag protein at the C-terminal end) VHH: DVQLQESGGGLVQPGGSLSLSCAASMSSPSLWVRAWHRQAPGKQRELVAAINSDGQTMYADSVKGRFTISRDNAKTLVSLQMDSLKPEDTAVYYCNVVTPRGQQYWGQGTQVTVSS : 0.0483 OD450
